- experimental protocol: In vitro rate of nitroxide reduction by superoxide in the presence of a thiol (EPR)
- Assay type: in vitro ADME
- condition info: room temperature; nitroxide 50 micromolar, cysteine 200 micromolar, superoxide flux 10 micromolar/min, pH 7.4
metric name: Reduction Rate (µM/min)
Answer format: numeric, µM/min implied, no suffix.

Q: Returns the measured Reduction Rate for the input substance. Input: DAB-dendrimer-(NH-3-CO-PROXYL)16 [[8]]
Result: 0.00

Q: What does the record list as Reduction Rate for DAB-dendrimer-(NH-3-CO-PROXYL)8 [[7]] ?
Result: 0.00

---

- experimental protocol: In vitro rate of nitroxide reduction by superoxide in the presence of a thiol (EPR)
- Format: in vitro ADME
- condition info: room temperature; nitroxide 50 micromolar, cysteine 200 micromolar, superoxide flux 10 micromolar/min, pH 7.4
# key: entry, value: Reduction Rate
Note: unit µM/min is implicit; provide only the numeric part.

Known Reduction Rate results, listed for orientation:
# substance, Reduction Rate (µM/min)
records = [
    ("DAB-dendrimer-(NH-3-CO-PROXYL)4 [[5]]", 7.93),
    ("TREN-dendrimer-(NH-3-CO-PROXYL)3 [[6]]", 7.54),
]

Q: Could you tell me which Reduction Rate is on file for DAB-dendrimer-(NH-3-CO-PROXYL)32 [[9]] ?
Result: 0.00
